System: Euphorbia heterophylla (EPHHL)
Test: Post-emergence efficacy, Method A
Assay type: in vivo
Conditions: Euphorbia heterophylla, post-emergence, 312 h; Application Rate 500 g/Ha; evaluated after 13 days; Method A; read-out: Control of weed species after post-emergence application, EPHHL (100=total damage to plant; 0=no damage to plant)
Task for the reader: assign each of the following compounds its reported pest or weed control at 500 g/ha.
Numbers only, in %.

Field: example entries. Status: answers known.
O=C(O)CC[n+]1ccc(-c2ncc(C(F)(F)F)cc2Cl)cn1 [Compound A197]    10
NC(=O)c1cnc(-c2cc[n+](CCC(=O)O)nc2)cn1 [Compound A202, 2,2,2-trifluoroacetate]    100

# map each compound to its pest or weed control at 500 g/ha
1. N[C@@H](C[n+]1ccc(-c2ncccn2)cn1)C(=O)O [Compound A208, 2,2,2-trifluoroacetate]
2. CC(C[n+]1ccc(-c2ncccn2)cn1)NS(=O)(=O)[O-] (stereo not drawn) [Compound A221]

1: 50; 2: 90

# map each compound to its pest or weed control at 500 g/ha
1. N[C@H](CC[n+]1ccc(-c2ccncn2)cn1)C(=O)O [Compound A235]
2. Nc1cc(-c2cc[n+](CCS(=O)(=O)[O-])nc2)ncn1 [Compound A164]
3. CC(CC(=O)O)[n+]1ccc(-c2ccncn2)cn1 (stereo not drawn) [Compound A172]
4. CC(C)(CC(=O)O)[n+]1ccc(-c2ccncn2)cn1 [Compound A189]
5. N[C@H](CC[n+]1ccc(-c2ncccn2)cn1)C(=O)O [Compound A207, 2,2,2-trifluoroacetate]
6. Cc1cc(Cl)cnc1-c1cc[n+](CCC(=O)O)nc1 [Compound A156]
7. O=S(=O)([N-]CC[n+]1ccc(-c2ncccn2)cn1)C(F)(F)F [Compound A225]
8. N#Cc1cnc(-c2cc[n+](CCS(=O)(=O)[O-])nc2)cn1 [Compound A191]

[20, 90, 50, 90, 90, 50, 100, 30]

# map each compound to its pest or weed control at 500 g/ha
1. CO[N-]C(=O)CC[n+]1ccc(-c2ncccn2)cn1 [Compound A218]
2. O=S(=O)(O)CC[n+]1ccc(-c2ccncc2F)cn1 [Compound A159]
3. Nc1cc(-c2cc[n+](CCC(=O)O)nc2)ccn1 [Compound A210]
4. O=C(O)CC[n+]1ccc(-c2ccnc(C(F)(F)F)c2)cn1 [Compound A166]
5. O=C(O)CC[n+]1ccc(-c2ncc(CO)cn2)cn1 [Compound A162]
6. O=S(=O)([O-])CC[n+]1ccc(-c2ncc(C(F)(F)F)cc2Cl)cn1 [Compound A175]

1. 80
2. 80
3. 10
4. 60
5. 80
6. 30

###

System: Chenopodium album (CHEAL)
Test: Post-emergence efficacy, Method A
Assay type: in vivo
Details: Chenopodium album, post-emergence, 312 h; Application rate 500 g/Ha; evaluated after 13 days; 100=total damage to plant, 0=no damage to plant; read-out: Control of weed species after post-emergence application, CHEAL
Description: Seeds of a variety of test species were sown in standard soil in pots. […] After 13 days the test was evaluated (100=total damage to plant; 0=no damage to plant). […]
quantity: pest or weed control at 500 g/ha (%)
Numbers only, in %.

Field: example entries. Status: answers known.
COc1cc(OC)nc(-c2cc[n+](CCS(=O)(=O)[O-])nc2)n1    70
O=C(O)CC[n+]1ccc(-c2ccnc(O)n2)cn1    40
COc1cnc(-c2cc[n+](CCC(=O)[O-])nc2)nc1    50
CN(C)c1ccnc(-c2cc[n+](CCC(=O)[O-])nc2)n1    60
O=S(=O)([O-])CC[n+]1ccc(-c2ncccc2C(F)(F)F)cn1    50

# map each compound to its pest or weed control at 500 g/ha
1. O=S(=O)([O-])CC[n+]1ccc(-c2ncc(Cl)cc2Cl)cn1
2. Cc1cc(-c2cc[n+](CCS(=O)(=O)[O-])nc2)ncn1

[20, 90]

###

Tested on: Euphorbia heterophylla (EPHHL)
Experiment: Post-emergence efficacy, Method A
Format: in vivo
Details: Euphorbia heterophylla, post-emergence, 312 h; Application rate 500 g/Ha; evaluated after 13 days; 100=total damage to plant, 0=no damage to plant; read-out: Control of weed species after post-emergence application, EPHHL
quantity: pest or weed control at 500 g/ha (%)
Numbers only, in %.

Field: example entries. Status: answers known.
CC(=O)c1ccnc(-c2cc[n+](CCS(=O)(=O)[O-])nc2)n1    70
O=C(O)CC[n+]1ccc(-c2ncc(C(F)(F)F)cn2)cn1    70
O=S(=O)([O-])CC[n+]1ccc(-c2nccc(C3CC3)n2)cn1    90
O=S(=O)([O-])CC[n+]1ccc(-c2ncccc2C(F)(F)F)cn1    50

Which measured pest or weed control at 500 g/ha value corresponds to Nc1cnc(-c2cc[n+](CCC(=O)[O-])nc2)nc1 ? 20

###

Task for the reader: assign each of the following compounds its reported pest or weed control at 500 g/ha.
Test system: Eleusine indica (ELEIN)
Assay: Post-emergence efficacy, Method A
Type: in vivo
Details: Eleusine indica, post-emergence, 312 h; Application Rate 500 g/Ha; evaluated after 13 days; Method A; read-out: Control of weed species after post-emergence application, ELEIN (100=total damage to plant; 0=no damage to plant)
Numbers only, in %.

Field: example entries. Status: answers known.
O=C([O-])CCC[n+]1ccc(-c2ncccn2)cn1    20
CN(C)S(=O)(=O)[N-]C(=O)C[n+]1ccc(-c2ncccn2)cn1    100

# map each compound to its pest or weed control at 500 g/ha
1. O=P([O-])(O)C[n+]1ccc(-c2ncccn2)cn1
2. O=S(=O)([O-])OCC[n+]1ccc(-c2ncccn2)cn1
3. CCOP(=O)(C[n+]1ccc(-c2ncccn2)cn1)OCC [Compound A230, 2,2,2-trifluoroacetate]
4. N#Cc1ccc(-c2cc[n+](CCC(=O)O)nc2)nc1
5. N[C@@H](CC[n+]1ccc(-c2ncccn2)cn1)C(=O)O [Compound A201, 2,2,2-trifluoroacetate]
6. CC(C)(C[n+]1ccc(-c2ccncn2)cn1)C(=O)O
7. O=S(=O)([O-])OCCC[n+]1ccc(-c2ncccn2)cn1

1: 60; 2: 90; 3: 10; 4: 70; 5: 100; 6: 80; 7: 100

###

System: Chenopodium album (CHEAL)
Test: Post-emergence efficacy, Method A
Format: in vivo
Details: Chenopodium album, post-emergence, 312 h; Application rate 500 g/Ha; evaluated after 13 days; 100=total damage to plant, 0=no damage to plant; read-out: Control of weed species after post-emergence application, CHEAL
Task for the reader: assign each of the following molecules its reported pest or weed control at 500 g/ha.
Give bare numbers, in %.

Cc1cnc(-c2cc[n+](CCS(=O)(=O)[O-])nc2)cn1    80
O=C([O-])CC[n+]1ccc(-c2ncc(C3CC3)cn2)cn1    70
O=C(O)CC[n+]1ccc(-c2nccc(=O)[nH]2)cn1    20
O=S(=O)([O-])CC[n+]1ccc(-c2ncc(C3CC3)cn2)cn1    70
O=C(O)CC[n+]1ccc(-c2ncccc2C(F)(F)F)cn1    10
O=S(=O)([O-])CC[n+]1ccc(-c2ccncn2)cn1    80
COC(=O)CC[n+]1ccc(-c2ncccn2)cn1 [Compound A54, 2,2,2-trifluoroacetate]    90
O=S(=O)([O-])CC[n+]1ccc(-c2ccc(Cl)cn2)cn1    60

Next molecule, pest or weed control at 500 g/ha to be filled in.
Which measured pest or weed control at 500 g/ha value corresponds to Cc1cncc(-c2cc[n+](CCC(=O)O)nc2)n1 ? 90

###

System: Digitaria sanguinalis (DIGSA)
Assay: Post-emergence efficacy, Method A
Type: in vivo
Conditions: Digitaria sanguinalis, post-emergence, 312 h; Application Rate 500 g/Ha; evaluated after 13 days; Method A; read-out: Control of weed species after post-emergence application, DIGSA (100=total damage to plant; 0=no damage to plant)
Experimental: Seeds of a variety of test species were sown in standard soil in pots. […] After 13 days the test was evaluated (100=total damage to plant; 0=no damage to plant). […]
Task for the reader: assign each of the following compounds its reported pest or weed control at 500 g/ha.
Numbers only, in %.

Field: example entries. Status: answers known.
O=C([O-])CCC[n+]1ccc(-c2ncccn2)cn1    90
N#Cc1ccc(-c2cc[n+](CCS(=O)(=O)[O-])nc2)nc1    50
Nc1cc(-c2cc[n+](CCC(=O)O)nc2)ccn1    60
N[C@@H](CC[n+]1ccc(-c2ncccn2)cn1)C(=O)O [Compound A201, 2,2,2-trifluoroacetate]    80
CC(CC[n+]1ccc(-c2ncccn2)cn1)S(=O)(=O)[O-] (stereo not drawn)    30
N#Cc1ccnc(-c2cc[n+](CCO)nc2)n1    60
O=S(=O)([O-])CC[n+]1ccc(-c2ccnc(C(F)(F)F)c2)cn1    60
OCCC[n+]1ccc(-c2ncccn2)cn1    20
NC(=O)c1cnc(-c2cc[n+](CCC(=O)O)nc2)cn1 [Compound A202, 2,2,2-trifluoroacetate]    60
CO[N-]C(=O)C[n+]1ccc(-c2ncccn2)cn1    70

# map each compound to its pest or weed control at 500 g/ha
1. O=C(O)CC[n+]1ccc(-c2ccc(C(F)(F)F)cn2)cn1
2. O=C(O)C(O)C[n+]1ccc(-c2ccncn2)cn1 (stereo not drawn)
3. CC(C[n+]1ccc(-c2ccncn2)cn1)C(=O)O (stereo not drawn)
4. Nc1cc(-c2cc[n+](CCS(=O)(=O)[O-])nc2)ncn1

[40, 60, 60, 30]

# map each compound to its pest or weed control at 500 g/ha
1. Cc1cc(F)cnc1-c1cc[n+](CCCS(=O)(=O)[O-])nc1
2. O=C(O)CC[n+]1ccc(-c2ccncc2F)cn1
3. CC(C(=O)OC(C)(C)C)[n+]1ccc(-c2ncccn2)cn1 (stereo not drawn)

0
70
30

# map each compound to its pest or weed control at 500 g/ha
1. OCC[n+]1ccc(-c2ncccn2)cn1 [Compound A195, 2,2,2-trifluoroacetate]
2. Cc1c[n+](CCC(=O)O)ncc1-c1ncccn1
3. O=C(O)CC[n+]1ccc(-c2ncc(CO)cn2)cn1
4. O=c1[nH]c(-c2cc[n+](CCCS(=O)(=O)[O-])nc2)ncc1Cl
5. COC(=O)c1ccc(C[n+]2ccc(-c3ncccn3)cn2)cc1

1: 20; 2: 20; 3: 70; 4: 20; 5: 20
